Values from patent US20240109893A1

Listing of recorded pIC50 by entry.
Tested on: H358 cells
procedure text: Cell activity experiment: activity test of H358 cells (MTT, 5 days)
Type: cell-based
details: Homo sapiens, NCI-H358, 120 h, 5 days incubation, absorbance 492 nm
Method: Example: Cell Activity Experiment 1. Cells: H358 purchased from Shanghai EK-Bioscience Biotechnology Co., Ltd. 2. Reagents: RPMI 1640 medium, Tryple, MTT (5 mg/mL), DMSO, and DPBS. 3. Instruments: an incubator at 37° C. and 5% CO2, a UTRAO microplate reader, a biosafety cabinet, a cell counting plate, and an Optec optical microscope. 4. Experimental consumables: 96-well plate Item No.: 3599, and 96-well round-bottomed dispensing plate. Experimental Steps of Activity Test of H358 Cells: 1. […]
pIC50 field: float, defined as -log10 of concentration (mol/L).

Completed entries (count: 5):
C=CC(=O)N1CCN(c2nc(OC[C@@H]3CCCN3C)nc3c(F)c(-c4cccc5c4CCOC5)ncc23)C[C@@H]1CC#N [Example 50] ... 6.85
C=CC(=O)N1CC[C@@H]2[C@H]1CN2c1nc(OCC23CCCN2CCC3)nc2c(F)c(-c3cncc4c3CCCC4)ncc12 [Example 45] ... 8.00
C=CC(=O)N1CCN(C2=C(C#N)C(OC[C@@H]3CCCN3C)=NC3C=C(c4cccc5ccc(F)c(Cl)c45)C=CC23)C[C@@H]1CC#N (stereo partly drawn) [Example 623] ... 6.70
C=CC(=O)N1CCN(c2nc(OC[C@@H]3C[C@@H](F)CN3C)nc3c(F)c(-c4cncc5c4CCCC5)ncc23)C[C@@H]1CC#N [Example 35] ... 7.82
C=CC(=O)N1CCN(c2nc(OCC34CCCN3CCC4)nc3nc(-c4cccc5cccc(Cl)c45)ccc23)C[C@@H]1CC#N [Example 258] ... 7.82

Now for the molecule whose pIC50 we want.
Enquiry: State recorded pIC50 with H358 cells, entry C=CC(=O)N1CCN(c2nc(OC[C@@H]3C[C@@H](F)CN3C)nc3c(F)c(-c4cccc5c4CCCC5)ncc23)C[C@@H]1CC#N [Example 5] , no comment.
Return: 7.70

###

Listing of recorded IC50 by entry.
Test system: H358 cells
procedure text: Cell activity experiment: activity test of H358 cells (MTT, 5 days)
Type: cell-based
details: 5 days incubation, absorbance 492 nm
Reply numerically in nM, unit not repeated.

C=C(F)C(=O)N1CCN(c2nc(OC[C@@H]3CCCN3C)nc3c(F)c(-c4cccc5c4CC4CC54)ccc23)C[C@@H]1CC#N (single isomer, unassigned) [Example 883] ... 10.6
C=C(F)C(=O)N1CCN(c2nc(OC[C@@]34CCCN3C[C@H](F)C4)nc3c(OC4CC4)c(-c4cccc5c4CC4CC54)c(Cl)cc23)C[C@@H]1CC#N (single isomer, unassigned) [Example 918] ... 40
C=CC(=O)N1CCN(c2nc(OC[C@@H]3CCCN3C)nc3c(F)c(-c4cccc5c4CC4CC54)ncc23)C[C@@H]1CC#N (single isomer, unassigned) [Example 874] ... 429
C=C(F)C(=O)N1CCN(c2nc(OCC3(CN4CCCC4)CC3)nc3c(F)c(-c4cccc5c4C4CC4C5)ccc23)C[C@@H]1CC#N (single isomer, unassigned) ... 9

Enquiry: Determine from records and report IC50 for C=CC(=O)N1CCN(c2nc(OC[C@@H]3CCCN3C)nc3nc(-c4cccc5c4CCCC5)ccc23)C[C@@H]1CC#N
Return: 355

###

Test system: H358 cells
procedure text: Cell activity experiment: activity test of H358 cells (MTT, 5 days)
Type: cell-based
details: Homo sapiens, NCI-H358, 120 h, 5 days incubation, absorbance 492 nm
reported metric: pIC50
pIC50 field: float, defined as -log10 of concentration (mol/L).

Completed entries (count: 2):
C=CC(=O)N1CCN(C2=C(C#N)C(OC[C@@H]3C[C@@H](F)CN3C)=NC3C=C(c4cccc5ccc(F)c(Cl)c45)C=CC23)C[C@@H]1CC#N (stereo partly drawn) ... 6.07
C=C(F)C(=O)N1CCN(c2nc(OC[C@@]34CCCN3C[C@H](F)C4)nc3c(F)c(-c4cccc5c4[C@H]4C[C@H]4C5)ncc23)C[C@@H]1CC#N ... 8.15

Now for the molecule whose pIC50 we want.
Enquiry: Determine from records and report pIC50 for C=CC(=O)N1CCN(c2nc(OC[C@@H]3CCCN3C)nc3cc(-c4cccc5c4CCCC5)c(Cl)cc23)C[C@@H]1CC#N
Return: 7.07

###

System: H358 cells
procedure text: Cell activity experiment: activity test of H358 cells (MTT, 5 days)
Assay type: cell-based
details: Homo sapiens, NCI-H358, 120 h, 5 days incubation, absorbance 492 nm
pIC50: −log10 of the molar value.
Bucketed by reported pIC50, buckets being zone 1 = under 7, zone 2 = from 7 up to 8, zone 3 = 8 and over

C=CC(=O)N1CC[C@@H]2[C@H]1CN2c1nc(OCC23CCCN2CCC3)nc2c(F)c(-c3cccc4c3CCCC4)ncc12 ... zone 3
C=CC(=O)N1CCN(c2nc(OC[C@@]34CCCN3C[C@H](F)C4)nc3c(F)c(-c4cccc5c4[C@H]4C[C@H]4C5)ncc23)C[C@@H]1CC#N ... zone 3
C=C(F)C(=O)N1CC[C@@H]2[C@H]1CN2c1nc(OCC23CCCN2CCC3)nc2c(F)c(-c3cccc4c3CCCC4)ncc12 ... zone 2
C=C(F)C(=O)N1CCN(c2nc(OC[C@@H]3CCCN3C)nc3c(F)c(-c4cccc5ccc(F)c(Cl)c45)ccc23)C[C@@H]1CC#N ... zone 3
C=CC(=O)N1CCN(c2nc(OC[C@@H]3CCCN3C)nc3cc(-c4cccc5c4CCCC5)ccc23)C[C@@H]1CC#N ... zone 2
C=C(F)C(=O)N1CCN(C2=C(C#N)C(OC[C@@H]3C[C@@H](F)CN3C)=NC3C=C(c4cccc5ccc(F)c(Cl)c45)C=CC23)C[C@@H]1CC#N (stereo partly drawn) ... zone 1
C=CC(=O)N1CCN(c2nc(OC[C@@H]3CCCN3C)nc3c(F)c(N4CCCc5cc(F)ccc54)c(Cl)cc23)CC1 ... zone 1
C=CC(=O)N1CCN(c2nc(OC[C@@H]3CCCN3C)nc3c(F)c(N4CCCc5cc(F)ccc54)ccc23)C[C@@H]1CC#N ... zone 1
C=CC(=O)N1CCN(c2nc(OCC34CCCN3CCC4)nc3c(F)c(-c4cccc5c4[C@@H]4C[C@@H]4C5)ncc23)C[C@@H]1CC#N ... zone 3
C=CC(=O)N1CCN(c2nc(OCC34CCCN3CCC4)nc3cc(-c4cccc5ccc(F)c(Cl)c45)ccc23)C[C@@H]1CC#N ... zone 3

Enquiry: Could you tell me which band C=CC(=O)N1CCN(c2nc(OC[C@@]34CCCN3C[C@H](F)C4)nc3c(F)c(-c4cccc5c4CCCC5)ncc23)C[C@@H]1CC#N belongs to?
Return: zone 3

Enquiry: Could you tell me which band C=C(F)C(=O)N1CCN(c2nc(OC[C@@H]3C[C@@H](F)CN3C)nc3cc(-c4cncc5cccc(Cl)c45)ccc23)C[C@@H]1CC#N belongs to?
Return: zone 2

Enquiry: Could you tell me which band C=CC(=O)N1CC[C@H]2[C@H]1CN2c1nc(OCC23CCCN2CCC3)nc2cc(-c3cccc4ccc(F)c(Cl)c34)c(Cl)cc12 belongs to?
Return: zone 2

###

Tested on: H358 cells
procedure text: Cell activity experiment: activity test of H358 cells (MTT, 5 days)
Assay type: cell-based
details: Homo sapiens, NCI-H358, 120 h, 5 days incubation, absorbance 492 nm
Listing of recorded IC50 by entry.

Completed entries (count: 2):
C=CC(=O)N1CCN(c2nc(OC[C@@H]3CCCN3C)nc3nc(-c4cccc5cccc(Cl)c45)ccc23)C[C@@H]1CC#N ... 30 nM
C=C(F)C(=O)N1CC[C@@H]2[C@H]1CN2c1nc(OC[C@@H]2C[C@@H](F)CN2C)nc2c(F)c(-c3cccc4c3CCCC4)ncc12 ... 80 nM

Now for the compound whose IC50 we want.
Enquiry: Determine from records and report IC50 for C=C(F)C(=O)N1CC[C@@H]2[C@H]1CN2c1nc(OCC23CCCN2CCC3)nc2c(F)c(-c3ccc(F)c4c3CCCC4)ncc12
Return: 60 nM

###

Test system: H358 cells
procedure text: Cell activity experiment: activity test of H358 cells (MTT, 5 days)
Assay type: cell-based
details: Homo sapiens, NCI-H358, 120 h, 5 days incubation, absorbance 492 nm
reported metric: pIC50
pIC50 field: float, defined as -log10 of concentration (mol/L).

C=CC(=O)N1CCN(c2nc(OC[C@@H]3CCCN3C)nc3cc(-c4cccc5ccc(F)c(Cl)c45)c(Cl)cc23)C[C@@H]1CC#N ... 7.19
C=CC(=O)N1CCN(c2nc(OC[C@@H]3CCCN3C)nc3c(F)c(-c4cccc5c4SCCC5)ncc23)C[C@@H]1CC#N ... 7.24

Now for the molecule whose pIC50 we want.
Enquiry: Determine from records and report pIC50 for C=C(F)C(=O)N1CCN(c2nc(OC[C@@]34CCCN3C[C@H](F)C4)nc3c(F)c(-c4cccc5ccc(F)c(Cl)c45)ccc23)C[C@@H]1CC#N
Return: 9.40
